Test system: WA09 hESCs
experiment-description: Random forest prediction of teratogenicity from metabolomics of spent media of dosed hESCs
Type: cell-based, human
reported-conditions: blind study; model trained on TS1, 142 mass features; circulating dose
Experimental: WA09 hESCs, obtained from WiCell Research Institute (NIH National Stem Cell Bank, Madison, Wis.) were cultured in 6-well plates on Matrigel (BD Biosciences, San Jose, Calif.), in mTeSR1 medium (Stem Cell Technologies, Vancouver, BC) incubated at 37° C. under 5% CO2 in a Thermo Electron Form a Series II Water Jacket CO2 Incubator. hESCs were passaged every three or four days at a 1:3 or 1:6 seeding density for routine culture conditions. […]
recorded-metric: Predicted teratogenicity (random forest statistical model)

molecule	measured-on	experimental-result
CO[C@H]1/C=C/O[C@@]2(C)Oc3c(C)c(O)c4c(O)c(c(/C=N/N5CCN(C)CC5)c(O)c4c3C2=O)NC(=O)/C(C)=C\C=C\[C@H](C)[C@H](O)[C@@H](C)[C@@H](O)[C@@H](C)[C@H](OC(C)=O)[C@@H]1C	WA09 hESCs	Ter
Cc1ncc(C[n+]2csc(CCO)c2C)c(N)n1	WA09 hESCs	Non
CN(C)CCOC(C)(c1ccccc1)c1ccccn1 (centres unmarked)	WA09 hESCs	Non
O=P1(N(CCCl)CCCl)NCCCO1 (centres unmarked) [Cyclophosphamide]	WA09 hESCs	Ter

Value of Predicted teratogenicity (random forest statistical model) reported for the molecule CC1=C(/C=C/C(C)=C/C=C/C(C)=C\C(=O)O)C(C)(C)CCC1 is Non

Value of Predicted teratogenicity (random forest statistical model) reported for the molecule NC(=O)N1c2ccccc2C=Cc2ccccc21 [Carbamazepine] is Ter

Value of Predicted teratogenicity (random forest statistical model) reported for the molecule CC1=C(/C=C/C(C)=C/C=C/C(C)=C/CO)C(C)(C)CCC1 is Non

Value of Predicted teratogenicity (random forest statistical model) reported for the molecule CCCCc1oc2ccccc2c1C(=O)c1cc(I)c(OCCN(CC)CC)c(I)c1 is Ter
